tested on: T-47D breast; assay: NCI-60 one-dose screen, 48 h; settings: 10 µM unless noted
The panel holds about 83,000 compounds, 20% with a hit somewhere; the sample as a whole holds those more often. Calls of active or inactive are those of the source. How the source made its calls: active means growth percent below 10; inactive means the rest.
Hello, when you answer, please use one of the following outcomes: Yes (active), No (inactive)

Hi, do you know how Nc1c(C(=O)Nc2cccc3ncccc23)sc2nc3c(cc12)C(=O)CCC3 came out in this test?
No

What do you get for O=c1nc(Nc2nc3ccccc3s2)[nH]c(=O)c2ccccc12 ?
No

What do you get for COc1ccc(/C(C)=C(\c2ccc(OCCN3CCCCCC3)cc2)c2ccc(OC(=O)c3ccccc3)cc2)cc1 ?
No

What do you get for COc1ccc(C2C3=C(COC3=O)N(CCO)c3cc4c(cc32)OCCO4)cc1OC (stereo not given) ?
No

What do you get for Cc1ccc(C(=O)c2ccc(CC(=O)N/N=C/c3ccc(O)cc3O)n2C)cc1 ?
No

What do you get for Cn1c(/C=C/[N+](=O)[O-])cc2ccccc21 ?
No

What do you get for COc1ccc(C2=Nc3c(N)ncnc3NC(c3cccc(Nc4ccnc5cc(C(F)(F)F)ccc45)c3)C2)cc1 (stereo not given) ?
No

What do you get for COc1cc2nc(Nc3cccc(F)c3)nc(Nc3cc(C)[nH]n3)c2cc1OC ?
Yes

What do you get for O=C(Nc1cccnc1Nc1ccc(Cl)cc1)c1cn(Cc2ccc(F)cc2)nn1 ?
No

What do you get for COC(c1ccc2ccccc2c1)C(C)C(F)F (stereo not given) ?
No
